Test: logP by HPLC on reversed phase columns (EEC directive 79/831 Annex V.A8)
Assay type: physicochemical
Settings: method [a]: LC-MS at pH 2.7, 0.1% formic acid in water / acetonitrile
What logP was measured for each of the following?

Use the examples below as a reference point.
{"molecule": "CCC1OC(CC)(CC)c2cccc(NC(=O)c3c(C(F)F)nn(C)c3Cl)c21 (centres unmarked)", "logP": "3.87[a]"}
{"molecule": "CC1OC(C)(C)c2cccc(NC(=O)c3c(C(F)F)nn(C)c3Br)c21 (centres unmarked)", "logP": "2.64[a]"}
{"molecule": "Cn1cc(C(=O)Nc2cccc3c2COC3(C)C)c(C(F)F)n1", "logP": "2.1[a]"}
{"molecule": "CCC1OC(CC)(CC)c2cccc(NC(=O)c3c(C(F)F)nn(C)c3Br)c21 (centres unmarked)", "logP": "3.87[a]"}
{"molecule": "CC1OC(C)(C)c2cccc(NC(=O)c3cn(C)nc3C(F)F)c21 (centres unmarked)", "logP": "2.15[a]"}

Hey, quick one: what's logP for each of these?
1. CCC1OC(C)(C)c2cccc(NC(=O)c3c(C(F)F)nn(C)c3F)c21 (centres unmarked)
2. Cn1nc(C(F)F)c(C(=O)Nc2cccc3c2COC3(C)C)c1Cl
3. CCC1(CC)OC(C(C)C)c2c(NC(=O)c3c(C(F)F)nn(C)c3F)cccc21 (centres unmarked)

(A)
1. 2.76[a]
2. 2.55[a]
3. 4.06[a]

----------
System: Puccinia recondita
Assay: In vivo preventive test on Puccinia recondita (brown rust on wheat)
Settings: 100 ppm, wheat plants, preventive spray, grading 12 days after contamination
measurement.kind: Eff. %

Examples from the recorded data:
{"molecule": "CC(C)C1OC(C)(C)c2cccc(NC(=O)c3c(C(F)F)nn(C)c3Br)c21 (stereo not drawn)", "Eff. %": "94%"}
{"molecule": "CCC1OC(CC)(CC)c2cccc(NC(=O)c3c(C(F)F)nn(C)c3Cl)c21 (stereo not drawn)", "Eff. %": "98%"}

Continue with the molecule presented below.
(Q) If you can, please state the reported Eff. % value of CCC1OC(C)(C)c2cccc(NC(=O)c3c(C(F)F)nn(C)c3F)c21 (stereo not drawn) .
(A) 98%
